target: Endothelin-1 receptor (Homo sapiens, UniProt P25101); assay: EDNRA Eurofins SafetyScan (Receptor)
pEC50: −log10 of the molar value.
EXPERIMENTAL ENDPOINT: pEC50

So what does the record say about pEC50 for "Cc1cn([C@H](C)CC#N)c(=O)c2cc(Cn3nc(C(F)F)cc3Cl)nn12" ? < 5.00

====

target: D(1A) dopamine receptor (Homo sapiens); assay: DRD1 Eurofins SafetyScan (Receptor)
Sequence (P21728 whole entry): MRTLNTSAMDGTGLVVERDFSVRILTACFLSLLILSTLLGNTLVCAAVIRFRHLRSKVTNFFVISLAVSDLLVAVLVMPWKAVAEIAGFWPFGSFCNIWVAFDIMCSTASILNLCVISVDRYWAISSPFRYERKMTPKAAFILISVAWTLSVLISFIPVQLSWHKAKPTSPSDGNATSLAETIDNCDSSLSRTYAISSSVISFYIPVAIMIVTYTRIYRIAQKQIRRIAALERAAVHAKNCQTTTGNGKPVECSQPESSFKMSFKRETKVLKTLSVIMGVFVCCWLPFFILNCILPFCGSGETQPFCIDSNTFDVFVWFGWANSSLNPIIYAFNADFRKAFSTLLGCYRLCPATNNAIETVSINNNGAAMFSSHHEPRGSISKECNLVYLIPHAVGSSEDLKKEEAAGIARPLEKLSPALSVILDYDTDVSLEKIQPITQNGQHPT
pIC50: −log10 of the molar value.
EXPERIMENTAL ENDPOINT: pIC50

So what does the record say about pIC50 for "Cc1cn([C@H](C)CC#N)c(=O)c2cc(Cn3nc(C(F)F)cc3Cl)nn12" ? < 5.00

====

target: Beta-1 adrenergic receptor (Homo sapiens)
Sequence (P08588 whole entry): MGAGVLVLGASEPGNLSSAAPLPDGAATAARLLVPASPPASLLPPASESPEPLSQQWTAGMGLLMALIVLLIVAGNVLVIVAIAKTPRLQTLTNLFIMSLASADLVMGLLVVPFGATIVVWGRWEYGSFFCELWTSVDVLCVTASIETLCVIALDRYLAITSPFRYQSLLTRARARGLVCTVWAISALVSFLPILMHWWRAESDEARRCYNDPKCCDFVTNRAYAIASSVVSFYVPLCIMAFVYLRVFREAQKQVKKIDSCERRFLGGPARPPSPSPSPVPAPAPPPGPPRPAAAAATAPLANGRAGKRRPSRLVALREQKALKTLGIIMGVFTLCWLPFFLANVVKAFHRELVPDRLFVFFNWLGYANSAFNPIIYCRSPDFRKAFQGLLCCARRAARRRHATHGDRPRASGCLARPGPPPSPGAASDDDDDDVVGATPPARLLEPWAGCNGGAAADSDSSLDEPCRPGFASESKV
pIC50: −log10 of the molar value.
EXPERIMENTAL ENDPOINT: pIC50

Find pIC50 (Beta-1 adrenergic receptor (Homo sapiens)) for the entry "Cc1cn([C@H](C)CC#N)c(=O)c2cc(Cn3nc(C(F)F)cc3Cl)nn12" < 5.00

====

target: 5-hydroxytryptamine receptor 1B (Homo sapiens, UniProt P28222); experiment: HTR1B Eurofins SafetyScan (Receptor)
Sequence (P28222 whole entry): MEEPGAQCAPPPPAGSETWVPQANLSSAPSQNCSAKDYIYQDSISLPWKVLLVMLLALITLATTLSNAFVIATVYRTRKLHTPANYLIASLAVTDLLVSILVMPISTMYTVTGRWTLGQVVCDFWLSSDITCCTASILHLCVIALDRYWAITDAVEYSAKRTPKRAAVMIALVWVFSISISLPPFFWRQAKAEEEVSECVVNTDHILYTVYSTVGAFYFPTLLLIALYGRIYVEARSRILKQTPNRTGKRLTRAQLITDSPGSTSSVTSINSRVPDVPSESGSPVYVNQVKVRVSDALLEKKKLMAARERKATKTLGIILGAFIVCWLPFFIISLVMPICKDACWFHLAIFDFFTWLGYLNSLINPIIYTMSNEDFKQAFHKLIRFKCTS
EXPERIMENTAL ENDPOINT: EC50

So what does the record say about EC50 for "Cc1cn([C@H](C)CC#N)c(=O)c2cc(Cn3nc(C(F)F)cc3Cl)nn12" ? > 10 µM

====

molecular target: Potassium voltage-gated channel subfamily KQT member 1 (Homo sapiens); assay: KvLQT1/minK Eurofins SafetyScreen (Other); design: species or system Blocker
pIC50: −log10 of the molar value.
EXPERIMENTAL ENDPOINT: pIC50

Find pIC50 (Potassium voltage-gated channel subfamily KQT member 1 (Homo sapiens)) for the entry "Cc1cn([C@H](C)CC#N)c(=O)c2cc(Cn3nc(C(F)F)cc3Cl)nn12" < 5.00

====

target: Cholecystokinin receptor type A (Homo sapiens, UniProt P32238); assay: CCKAR Eurofins SafetyScan (Receptor)
Sequence (P32238 whole entry): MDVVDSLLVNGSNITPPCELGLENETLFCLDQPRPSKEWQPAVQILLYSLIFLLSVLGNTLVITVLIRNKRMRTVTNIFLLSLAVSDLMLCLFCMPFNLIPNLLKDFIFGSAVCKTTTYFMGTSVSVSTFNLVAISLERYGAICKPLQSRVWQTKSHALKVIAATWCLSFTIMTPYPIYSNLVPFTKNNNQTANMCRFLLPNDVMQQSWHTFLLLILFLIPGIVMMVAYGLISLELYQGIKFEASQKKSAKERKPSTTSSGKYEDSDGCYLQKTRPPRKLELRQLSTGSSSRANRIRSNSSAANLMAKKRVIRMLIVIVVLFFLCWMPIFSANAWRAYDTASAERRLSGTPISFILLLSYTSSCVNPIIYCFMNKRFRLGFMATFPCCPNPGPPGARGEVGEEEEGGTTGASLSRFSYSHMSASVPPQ
pEC50: −log10 of the molar value.
EXPERIMENTAL ENDPOINT: pEC50

So what does the record say about pEC50 for "Cc1cn([C@H](C)CC#N)c(=O)c2cc(Cn3nc(C(F)F)cc3Cl)nn12" ? < 5.00

====

target: Muscarinic acetylcholine receptor M1 (Homo sapiens, UniProt P11229)
pIC50: −log10 of the molar value.
EXPERIMENTAL ENDPOINT: pIC50

So what does the record say about pIC50 for "Cc1cn([C@H](C)CC#N)c(=O)c2cc(Cn3nc(C(F)F)cc3Cl)nn12" ? < 5.00

====

target: Voltage-gated inwardly rectifying potassium channel KCNH2 (Homo sapiens)
EXPERIMENTAL ENDPOINT: IC50

Find IC50 (Voltage-gated inwardly rectifying potassium channel KCNH2 (Homo sapiens)) for the entry "Cc1cn([C@H](C)CC#N)c(=O)c2cc(Cn3nc(C(F)F)cc3Cl)nn12" > 10 µM

====

target: Vasopressin V1a receptor (Homo sapiens, UniProt P37288); assay: AVPR1A Eurofins SafetyScan (Receptor)
pEC50: −log10 of the molar value.
EXPERIMENTAL ENDPOINT: pEC50

So what does the record say about pEC50 for "Cc1cn([C@H](C)CC#N)c(=O)c2cc(Cn3nc(C(F)F)cc3Cl)nn12" ? < 5.00

====

target: Adenosine receptor A2a (Homo sapiens)
pIC50: −log10 of the molar value.
EXPERIMENTAL ENDPOINT: pIC50

Find pIC50 (Adenosine receptor A2a (Homo sapiens)) for the entry "Cc1cn([C@H](C)CC#N)c(=O)c2cc(Cn3nc(C(F)F)cc3Cl)nn12" < 5.00

====

molecular target: Insulin receptor (Homo sapiens); test: INSR Eurofins SafetyScreen (Other); set-up: species or system Inhibitor
EXPERIMENTAL ENDPOINT: IC50

Find IC50 (Insulin receptor (Homo sapiens)) for the entry "Cc1cn([C@H](C)CC#N)c(=O)c2cc(Cn3nc(C(F)F)cc3Cl)nn12" > 10 µM

====

target: Histamine H2 receptor (Homo sapiens, UniProt P25021)
Sequence (P25021 whole entry): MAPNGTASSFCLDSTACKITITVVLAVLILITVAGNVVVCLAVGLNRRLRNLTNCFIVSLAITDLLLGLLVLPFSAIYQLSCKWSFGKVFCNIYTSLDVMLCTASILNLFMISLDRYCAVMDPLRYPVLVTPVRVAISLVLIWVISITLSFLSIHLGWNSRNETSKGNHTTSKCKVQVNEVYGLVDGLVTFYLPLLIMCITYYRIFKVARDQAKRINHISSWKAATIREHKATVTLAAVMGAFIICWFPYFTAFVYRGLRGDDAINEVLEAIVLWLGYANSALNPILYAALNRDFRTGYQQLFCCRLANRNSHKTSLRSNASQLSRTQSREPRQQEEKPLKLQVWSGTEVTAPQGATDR
EXPERIMENTAL ENDPOINT: IC50

Find IC50 (Histamine H2 receptor (Homo sapiens, UniProt P25021)) for the entry "Cc1cn([C@H](C)CC#N)c(=O)c2cc(Cn3nc(C(F)F)cc3Cl)nn12" > 10 µM

====

biological target: Histamine H2 receptor (Homo sapiens); test: HRH2 Eurofins SafetyScan (Receptor)
EXPERIMENTAL ENDPOINT: EC50

So what does the record say about EC50 for "Cc1cn([C@H](C)CC#N)c(=O)c2cc(Cn3nc(C(F)F)cc3Cl)nn12" ? > 10 µM

====

molecular target: Neuronal acetylcholine receptor; alpha4/beta2 (Homo sapiens, UniProt P17787+P43681); assay: nAChR(a4/b2) Eurofins SafetyScreen (Other)
pIC50: −log10 of the molar value.
EXPERIMENTAL ENDPOINT: pIC50

So what does the record say about pIC50 for "Cc1cn([C@H](C)CC#N)c(=O)c2cc(Cn3nc(C(F)F)cc3Cl)nn12" ? < 5.00

====

biological target: 5-hydroxytryptamine receptor 2A (Homo sapiens)
Sequence (P28223 whole entry): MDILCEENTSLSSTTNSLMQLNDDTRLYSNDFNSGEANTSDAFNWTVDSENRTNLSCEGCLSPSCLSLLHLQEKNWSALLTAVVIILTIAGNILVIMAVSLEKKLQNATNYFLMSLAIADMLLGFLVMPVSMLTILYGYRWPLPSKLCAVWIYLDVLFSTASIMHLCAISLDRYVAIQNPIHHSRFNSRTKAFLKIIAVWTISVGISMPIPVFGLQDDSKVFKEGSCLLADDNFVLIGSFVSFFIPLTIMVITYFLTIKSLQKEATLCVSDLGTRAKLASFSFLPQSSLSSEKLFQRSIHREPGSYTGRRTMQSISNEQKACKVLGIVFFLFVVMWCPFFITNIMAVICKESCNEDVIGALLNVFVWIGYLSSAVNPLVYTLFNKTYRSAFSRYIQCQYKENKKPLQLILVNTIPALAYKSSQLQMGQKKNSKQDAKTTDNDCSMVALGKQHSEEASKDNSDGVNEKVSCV
pIC50: −log10 of the molar value.
EXPERIMENTAL ENDPOINT: pIC50

Find pIC50 (5-hydroxytryptamine receptor 2A (Homo sapiens)) for the entry "Cc1cn([C@H](C)CC#N)c(=O)c2cc(Cn3nc(C(F)F)cc3Cl)nn12" < 5.00

====

target: Vascular endothelial growth factor receptor 2 (Homo sapiens, UniProt P35968)
Sequence (P35968 whole entry): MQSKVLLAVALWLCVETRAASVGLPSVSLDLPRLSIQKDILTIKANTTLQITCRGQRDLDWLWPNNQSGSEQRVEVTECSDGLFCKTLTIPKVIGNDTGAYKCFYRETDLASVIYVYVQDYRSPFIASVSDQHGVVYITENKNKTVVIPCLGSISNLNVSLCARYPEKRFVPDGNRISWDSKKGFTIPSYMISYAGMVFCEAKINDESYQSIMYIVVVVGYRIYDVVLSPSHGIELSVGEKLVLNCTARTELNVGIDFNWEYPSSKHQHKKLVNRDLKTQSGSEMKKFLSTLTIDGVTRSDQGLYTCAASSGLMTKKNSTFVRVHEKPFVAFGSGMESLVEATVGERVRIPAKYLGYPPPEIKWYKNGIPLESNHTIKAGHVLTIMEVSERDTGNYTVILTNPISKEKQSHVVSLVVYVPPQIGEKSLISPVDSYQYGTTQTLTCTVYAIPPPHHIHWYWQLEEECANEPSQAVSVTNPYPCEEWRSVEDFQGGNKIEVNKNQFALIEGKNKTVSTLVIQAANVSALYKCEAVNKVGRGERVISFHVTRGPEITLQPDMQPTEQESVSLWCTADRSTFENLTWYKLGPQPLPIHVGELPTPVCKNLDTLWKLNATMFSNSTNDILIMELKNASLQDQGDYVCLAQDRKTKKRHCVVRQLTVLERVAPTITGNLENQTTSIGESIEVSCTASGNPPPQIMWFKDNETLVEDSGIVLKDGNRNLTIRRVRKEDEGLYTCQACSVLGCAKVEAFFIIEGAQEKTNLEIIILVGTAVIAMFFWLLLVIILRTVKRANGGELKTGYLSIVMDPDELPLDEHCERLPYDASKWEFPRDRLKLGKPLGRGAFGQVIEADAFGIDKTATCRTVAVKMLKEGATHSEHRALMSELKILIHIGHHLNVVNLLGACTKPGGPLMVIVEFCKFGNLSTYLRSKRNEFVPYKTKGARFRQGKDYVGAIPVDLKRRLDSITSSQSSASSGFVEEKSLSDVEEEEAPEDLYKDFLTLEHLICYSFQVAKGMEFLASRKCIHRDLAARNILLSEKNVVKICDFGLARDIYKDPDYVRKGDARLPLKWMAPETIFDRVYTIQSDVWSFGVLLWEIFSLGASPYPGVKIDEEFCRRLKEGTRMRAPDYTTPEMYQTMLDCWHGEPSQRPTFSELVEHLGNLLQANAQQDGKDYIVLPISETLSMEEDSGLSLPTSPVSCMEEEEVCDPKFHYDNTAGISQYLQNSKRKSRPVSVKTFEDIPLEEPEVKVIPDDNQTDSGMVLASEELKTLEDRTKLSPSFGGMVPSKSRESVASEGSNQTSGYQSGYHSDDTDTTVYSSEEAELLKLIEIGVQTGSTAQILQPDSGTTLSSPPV
EXPERIMENTAL ENDPOINT: IC50

Find IC50 (Vascular endothelial growth factor receptor 2 (Homo sapiens, UniProt P35968)) for the entry "Cc1cn([C@H](C)CC#N)c(=O)c2cc(Cn3nc(C(F)F)cc3Cl)nn12" > 10 µM

====

molecular target: 5-hydroxytryptamine receptor 2B (Homo sapiens); assay: HTR2B Eurofins SafetyScan (Receptor)
EXPERIMENTAL ENDPOINT: EC50

So what does the record say about EC50 for "Cc1cn([C@H](C)CC#N)c(=O)c2cc(Cn3nc(C(F)F)cc3Cl)nn12" ? > 10 µM

====

experiment: GPCRScan assay: inhibition of GABA/PBR; set-up: species or system Rattus norvegicus; radioligand conc. used [nm] 0.3 – 2.0, parental cells brain tissue
EXPERIMENTAL ENDPOINT: Ki (µM)
Respond numerically; units are µM and should not be typed.

So what does the record say about Ki for "Cc1cn([C@H](C)CC#N)c(=O)c2cc(Cn3nc(C(F)F)cc3Cl)nn12" ? 0.336

====

biological target: UniProtKB P34972; assay: CNR2 Eurofins SafetyScan (Receptor)
Sequence (P34972 whole entry): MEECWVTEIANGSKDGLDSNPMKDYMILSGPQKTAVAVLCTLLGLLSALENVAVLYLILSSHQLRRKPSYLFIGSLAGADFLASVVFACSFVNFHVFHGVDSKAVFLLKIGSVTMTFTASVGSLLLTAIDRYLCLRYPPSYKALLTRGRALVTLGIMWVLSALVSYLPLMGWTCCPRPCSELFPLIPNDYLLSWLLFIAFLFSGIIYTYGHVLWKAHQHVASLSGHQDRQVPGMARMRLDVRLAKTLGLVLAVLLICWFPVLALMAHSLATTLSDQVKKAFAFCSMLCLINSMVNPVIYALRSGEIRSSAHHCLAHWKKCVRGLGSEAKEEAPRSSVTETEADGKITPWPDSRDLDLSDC
EXPERIMENTAL ENDPOINT: EC50

So what does the record say about EC50 for "Cc1cn([C@H](C)CC#N)c(=O)c2cc(Cn3nc(C(F)F)cc3Cl)nn12" ? > 10 µM

====

Protein target, amino acids: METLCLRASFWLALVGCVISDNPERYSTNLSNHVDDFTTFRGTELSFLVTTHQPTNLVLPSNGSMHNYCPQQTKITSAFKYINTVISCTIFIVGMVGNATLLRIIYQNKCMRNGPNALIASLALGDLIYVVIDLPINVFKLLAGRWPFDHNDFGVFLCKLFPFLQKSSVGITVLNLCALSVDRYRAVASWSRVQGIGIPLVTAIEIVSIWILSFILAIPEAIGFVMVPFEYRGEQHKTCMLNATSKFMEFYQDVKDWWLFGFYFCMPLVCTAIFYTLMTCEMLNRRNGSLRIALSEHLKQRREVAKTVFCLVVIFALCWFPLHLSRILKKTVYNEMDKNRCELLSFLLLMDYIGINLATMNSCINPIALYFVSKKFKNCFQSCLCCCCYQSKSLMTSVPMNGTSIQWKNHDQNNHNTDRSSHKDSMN
EXPERIMENTAL ENDPOINT: IC50

So what does the record say about IC50 for "Cc1cn([C@H](C)CC#N)c(=O)c2cc(Cn3nc(C(F)F)cc3Cl)nn12" ? > 10 µM

====

molecular target: UniProt P46098
pIC50: −log10 of the molar value.
EXPERIMENTAL ENDPOINT: pIC50

So what does the record say about pIC50 for "Cc1cn([C@H](C)CC#N)c(=O)c2cc(Cn3nc(C(F)F)cc3Cl)nn12" ? < 5.00

====

target: 5-hydroxytryptamine receptor 1B (Homo sapiens)
pIC50: −log10 of the molar value.
EXPERIMENTAL ENDPOINT: pIC50

So what does the record say about pIC50 for "Cc1cn([C@H](C)CC#N)c(=O)c2cc(Cn3nc(C(F)F)cc3Cl)nn12" ? < 5.00

====

biological target: Alpha-2A adrenergic receptor (Homo sapiens, UniProt P08913)
Sequence (P08913 whole entry): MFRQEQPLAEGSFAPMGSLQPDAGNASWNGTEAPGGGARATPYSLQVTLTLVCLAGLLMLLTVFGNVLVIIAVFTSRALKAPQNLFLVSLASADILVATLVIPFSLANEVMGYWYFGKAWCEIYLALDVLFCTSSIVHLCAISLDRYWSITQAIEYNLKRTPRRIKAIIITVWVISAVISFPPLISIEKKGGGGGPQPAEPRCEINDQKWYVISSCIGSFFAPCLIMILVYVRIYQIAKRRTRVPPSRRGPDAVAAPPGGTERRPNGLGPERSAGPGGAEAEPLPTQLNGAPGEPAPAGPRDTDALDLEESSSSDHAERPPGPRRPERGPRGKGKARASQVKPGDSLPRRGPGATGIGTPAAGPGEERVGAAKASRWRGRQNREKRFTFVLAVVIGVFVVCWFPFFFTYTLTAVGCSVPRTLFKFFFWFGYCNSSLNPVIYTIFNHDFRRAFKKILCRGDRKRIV
pIC50: −log10 of the molar value.
EXPERIMENTAL ENDPOINT: pIC50

Find pIC50 (Alpha-2A adrenergic receptor (Homo sapiens, UniProt P08913)) for the entry "Cc1cn([C@H](C)CC#N)c(=O)c2cc(Cn3nc(C(F)F)cc3Cl)nn12" < 5.00
